Target: MjGCTL (rMjGCTL) (Penaeus japonicus, UniProt A0A1L7MZX5)
Construct: gene GCTL; secreted from Drosophila S2 cells (pMT/BiP/V5-His C), V5 and His tags kept, Ni-NTA purified; ~50 kDa, glycosylated; ORF 311 aa, 35 kDa predicted; LDLa domain plus CRD (QAP motif)
Sequence (A0A1L7MZX5 17-311): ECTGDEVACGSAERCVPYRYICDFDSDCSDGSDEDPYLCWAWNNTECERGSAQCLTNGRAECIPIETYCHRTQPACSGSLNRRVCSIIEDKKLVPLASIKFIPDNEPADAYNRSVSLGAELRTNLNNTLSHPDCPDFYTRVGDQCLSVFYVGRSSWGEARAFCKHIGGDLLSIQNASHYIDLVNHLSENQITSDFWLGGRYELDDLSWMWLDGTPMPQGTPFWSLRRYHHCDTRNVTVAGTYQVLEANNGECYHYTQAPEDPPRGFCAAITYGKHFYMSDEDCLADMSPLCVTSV
Assay: inhibition of bacterial agglutination by purified rMjGCTL
Assay type: biochemical
Details: V. parahaemolyticus named for Man/Gal/Glc; TBS with 10 mM CaCl2, pH 7, 25 °C; 1 h preincubation; Ca2+-dependent
ENDPOINT_LABEL: Minimum inhibitory concentration
Please answer using the number first and the unit second.

Ask | Check the records and state Minimum inhibitory concentration for OC[C@H]1OC(O)[C@H](O)[C@@H](O)[C@@H]1O (stereo partly drawn)
Reply | 100 mM

Ask | Check the records and state Minimum inhibitory concentration for OC1OC[C@@H](O)[C@H](O)[C@H]1O (stereo partly drawn)
Reply | 62.5 mM

Ask | Check the records and state Minimum inhibitory concentration for CC(=O)N[C@H]1C(O)O[C@H](CO)[C@@H](O)[C@@H]1O (stereo partly drawn)
Reply | 250 mM

Ask | Check the records and state Minimum inhibitory concentration for C[C@@H]1OC(O)[C@@H](O)[C@H](O)[C@@H]1O (stereo partly drawn)
Reply | 250 mM

Ask | Check the records and state Minimum inhibitory concentration for OC[C@H]1O[C@@H](O[C@H]2[C@H](O)[C@@H](O)C(O)O[C@@H]2CO)[C@H](O)[C@@H](O)[C@H]1O (stereo partly drawn)
Reply | 250 mM

Ask | Check the records and state Minimum inhibitory concentration for OC[C@H]1O[C@H](O[C@H]2[C@H](O)[C@@H](O)C(O)O[C@@H]2CO)[C@H](O)[C@@H](O)[C@@H]1O (stereo partly drawn)
Reply | 125 mM
